B1: RAB40A (parent)
chain: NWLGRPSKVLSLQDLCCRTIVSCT

variants of: B1; experiment: protein stability index of a GFP-peptide fusion (GPS, HEK-293T) (PSI 1-6); higher = more stable; settings: c terminus: a fixed tail appended;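 also: lentivirally expressed fusions sorted by FACS into six bins by GFP to DsRed ratio, PSI derived from sequencing read proportions per bin multiplied by bin number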
protein stability index values, listed per item
API note: the answer field is a bare number with no unit suffix.

Use the examples below as a reference point.
> print(dat)
   change            quantity.name  endpoint.value
1     W2C  protein stability index            2.71
2     R5E  protein stability index             2.7
3    S22A  protein stability index            2.23
4    C23N  protein stability index            2.93

The recorded protein stability index for entry V21P equals 2.89

The recorded protein stability index for entry L10E equals 2.15

The recorded protein stability index for entry P6L equals 1.76

The recorded protein stability index for entry C23K equals 2.92

The recorded protein stability index for entry C23H equals 2.69
